// provenance: the RNAGym collection of RNA variant scans (doi:10.7554/elife.80360)

B1: CPEB3 Ribozyme (parent)
chain: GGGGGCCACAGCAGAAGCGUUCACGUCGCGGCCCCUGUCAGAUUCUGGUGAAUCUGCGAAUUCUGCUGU

- Variants of: B1
- PROTOCOL TEXT: self-cleavage, relative activity (ratio to wild type); higher = more cleavage; co-transcriptional
OUTCOME MEASURE: self-cleavage
Give the value as a plain number.

SEQUENCE RECORD: GGGGGCCACAGCAGAAGCGUUCACGUCGCGGCCCCUAUCAGAUUCUGGUGAAUCUGCGAAUUCCGCUGU [G37A U64C]
READING: 0.312
//
SEQUENCE RECORD: GGGGGCCGCAGCAGAAGCGUUCACGUCGCGGCCCCUGUCAGAUUCUGGUGUAUCUGCGAAUUCUGCUGU [A8G A51U]
READING: 0.772
//
SEQUENCE RECORD: GGGGGCCACAGCAGAAGCGGUCACGUCGCGGCCCCUGUCAGAUUCUGGUGAAUCUGAGAAUUCUGCUGU [U20G C57A]
READING: 0.124
//
SEQUENCE RECORD: UGGGGCCACAGCAGAAGCGGUCACGUCGCGGCCCCUGUCAGAUUCUGGUGAAUCUGCGAAUUCUGCUGU [G1U U20G]
READING: 0.0369

Prompt: Give the measured self-cleavage of GGGGGCCACAGCAGAAGCGUUCACGUCGCGGCCCCUGUCAGAUUCUGGUUAACCUGCGAAUUCUGCUGU [G50U U53C] .
Completion: 0.909

Prompt: Give the measured self-cleavage of GGGGGCCACAGCACAAGCGUUCAAGUCGCGGCCCCUGUCAGAUUCUGGUGAAUCUGCGAAUUCUGCUGU [G14C C24A] .
Completion: 0.136
